Source of measurements: paper PMC9684356

Target: T1, HLTF HIRAN domain (UniProt Q14527 51-171)
T1 sequence: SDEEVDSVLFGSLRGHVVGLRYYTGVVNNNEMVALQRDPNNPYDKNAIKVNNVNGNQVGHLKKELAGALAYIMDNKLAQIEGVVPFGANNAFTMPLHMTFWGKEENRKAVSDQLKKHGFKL
Assay: competition
pIC50: −log10 of the molar value.
Given measured pIC50, output rule met if it is greater than or equal to 5 and rule not met if not.

>>> label_class("TCT (ssDNA)")
"rule met"
>>> label_class("GCC (ssDNA)")
"rule not met"
>>> label_class("TCC (ssDNA)")
"rule not met"
>>> label_class("ATG (ssDNA)")
"rule met"
>>> label_class("GTG (ssDNA)")
"rule met"
>>> label_class("TTA (ssDNA)")
"rule met"
>>> label_class("TTT (ssDNA)")
"rule met"
